Source: the nanobody polyreactivity screen of Harvey et al. (2022)

- Measurement Description: yeast display, Sf9 membrane polyspecificity reagent, FACS + sequencing; frameworks hold sequencing errors
Assay Metric: polyreactivity (PSR sort gate)

[
  {
    "Seq String": "QVQLVESGGGLVQAGGSLRLSCAASGNTFGYNAMGWYRQAPGKERELVASITWSGGSTYYADSVKGRFTISRDNAKNTVYLEMKSLKPEDTAVYYCNADVRYGRDHWGQGTQVTVSS",
    "Result": "low polyreactivity"
  },
  {
    "Seq String": "QVQLVESGGGLVQAGGSLRLSCAASGRTFGGYVMGWYRQAPGKERELVATITYSGGSTHYADSVKGRFTISRDNAKNTVYLQINSLKPEDTAVYYCARRRSYRYPSEYNYWGQGTQVTVSS",
    "Result": "high polyreactivity"
  },
  {
    "Seq String": "QVQLVDSGGGLVQAGGSLRLSCAASGFTITRNVMGWYRQAHGKERELVAAITSGGNTNYADSVKGRFTISRDNAKNTVYLQMNSLKPEDTAVYYCATSYHRRYDYWGQGTQVTVSS",
    "Result": "low polyreactivity"
  },
  {
    "Seq String": "QDQLVESWGGLVQAGGSLRLSCAASGFTFNKYAMGWYRQAPGKERELVAAISSSGGRTSYADSVKGRFTISRDNAKNTVYLQMNSLKPEDTAVYYCNKVSTADMGYWGHGTQVTVSS",
    "Result": "high polyreactivity"
  },
  {
    "Seq String": "QVQLVESGGGLVQAGGSLRLSCAASGSIFNINAMGWYRQAPGKERELVAAISKRGGSTYYADSVKGRFTISRDNAKNTVYLQLNSLKPEDTAVYYCAADLTGVDYDYWGQGTQVTVSS",
    "Result": "high polyreactivity"
  }
]

###

- Measurement Description: yeast display, Sf9 membrane polyspecificity reagent, FACS + sequencing; frameworks hold sequencing errors

[
  {
    "Seq String": "QVQLVESGGGLVQAGGILRLSCAASGITFRCYAMVWYRQAPGKERELVAAITTGGSTKYADSVKGRFTISRDNAKKSVYLQMNSLKPEDTAVYYCAARGRYAGGYWGQGTQVTVSS",
    "polyreactivity (PSR sort gate)": "high polyreactivity"
  },
  {
    "Seq String": "QVQLVESGGGLVQAGGSLRLTCAASGSIFRVYAMGWYRQAPGKERELVAVISIAGRTNYADSVKGRFTISRDNAKNTVYLQMNSLKAEDTAVYYCNAGGVGVATGYDYWGQGTQVTVSS",
    "polyreactivity (PSR sort gate)": "low polyreactivity"
  },
  {
    "Seq String": "QVQLVESGGGLVQAGGSLRLSCAPSGSTFNNYALGGYRQAPGKERELVAAIRSIGGSTYYADSVKGRFTISRDNAKNTVYLQMNSLKPEDTAVYYCAADYFYLKWYEYWGQGTQVTVSS",
    "polyreactivity (PSR sort gate)": "high polyreactivity"
  },
  {
    "Seq String": "QVQLVESVGGLVQAGGSLRLTCAASVFTFGYYAMGWYRQAPGKERELVAAITWSGGRTYYADSVKGRFTISRDNAKYTVYLQMNSLKPEDTAVYYCAVETLWQGSEYWGQGTQVTVSS",
    "polyreactivity (PSR sort gate)": "low polyreactivity"
  }
]

###

- Measurement Description: yeast display, Sf9 membrane polyspecificity reagent, FACS + sequencing; frameworks hold sequencing errors
Assay Metric: polyreactivity (PSR sort gate)

[
  {
    "Seq String": "QVQLVESGGGLVQAGGSLRLSCAASGSIFGYNVMGWYRQAPGKERELVATISSSGGTNYADSVKGRFTISRDNAKNTVYLQMNSLKPEDTAVYYCNADVLDGGYDYWGQGTQVTVSS",
    "Assay Metric": "polyreactivity (PSR sort gate)",
    "Result": "low polyreactivity"
  },
  {
    "Seq String": "QVQLVESGGGLVQSGVSLRLSCAASGITFYSIAIGWYRPATGKEMELVAANTRRGGSKLNADSVKGRFTNSRDNSKNTVYLQMNSLKPEDTAVYFCAADVPWWSYSDDYWGQGTKVTVSS",
    "Assay Metric": "polyreactivity (PSR sort gate)",
    "Result": "high polyreactivity"
  },
  {
    "Seq String": "QVQHVESGGGLVQAGGSLRLSCAASMGWYRQAPGKERELVAAINSGGSTNYADSVKGRFTISRDNAKNTVYLQMNSLKPEDTAVYYCAKTFSNLPEYDYWGQGTQVTVSS",
    "Assay Metric": "polyreactivity (PSR sort gate)",
    "Result": "low polyreactivity"
  },
  {
    "Seq String": "QVQLVESGGGLVQAGGSLRLSCAASGYTFSWYAMGWYRQAPRKERELVAGIDTSGGSTYYADSVKGRFTISRDNAKNTVYLQMNSLKPEDTAVYYCAAGLLWYSWGFWYYEYGYWGQGTQVTVSS",
    "Assay Metric": "polyreactivity (PSR sort gate)",
    "Result": "low polyreactivity"
  },
  {
    "Seq String": "QVQLVESGGGLVQAGGILSLSCAASGSTFVGNAMGWYRPAPGKERELVATISNSGGRTYYADSVKGRFTISRDNAKNTVYLQMNSLKPEETAVYYCAADPPAFGPGYSFDYWGHGTQVTVSS",
    "Assay Metric": "polyreactivity (PSR sort gate)",
    "Result": "low polyreactivity"
  },
  {
    "Seq String": "QVQLVESGGGLVQAGGSLRLSCAASGLTFYAYAMGWYRQAPGKERELVAHISWTGTTTYYADSVKGRFTISRDNAKNTVYLQMNSLKPEDTAVYYCAALIYRYAVAPPGYQYWLYYWGQGTLVTVSS",
    "Assay Metric": "polyreactivity (PSR sort gate)",
    "Result": "low polyreactivity"
  },
  {
    "Seq String": "QVQLVESGGALVQAGGSLRLSCAASGRTFNYYAKGWSRQAPGKERELVAAITNGVSTKYADSVKGRFTISRDNAKNTVYLQMNSLKPEDTAVYYCAAQRLYGYRLYNYWGQGTQVTVSS",
    "Assay Metric": "polyreactivity (PSR sort gate)",
    "Result": "high polyreactivity"
  },
  {
    "Seq String": "QVQLVESGGGIVQAGGSLRLSCAASGRTFKRYAMGWYRPAPGKERELVAAITRSGGSTYYADSVKGRFTISRDNAKNTVYLQMNSLKPEDTAVYYCATRSYNNELEYWGQGTQVTVSS",
    "Assay Metric": "polyreactivity (PSR sort gate)",
    "Result": "high polyreactivity"
  }
]

###

- Measurement Description: yeast display, Sf9 membrane polyspecificity reagent, FACS + sequencing; frameworks hold sequencing errors

[
  {
    "Seq String": "QVQLVESGGGLVQAGGSLRLSCAASGSIFAPYAMGWYRQAPGKERELVAAINNNGGRTYYADSVKGRFTISRDNAKNTVYLQMNSLKPEDTAVYYCAADIYPDWIYLLYGYWGQGTQVTVSS",
    "polyreactivity (PSR sort gate)": "low polyreactivity"
  },
  {
    "Seq String": "QVQLVESGGGLVQAGGSLRLSCAASGSIFFYYAMGWYRQAPGKERELVASISTDGSTYADSVKGRFTISRDNAKNTVYLQMNSLKPEDTAVYYCATRGAEAERFASYDFDYWGQGTQVTVSS",
    "polyreactivity (PSR sort gate)": "low polyreactivity"
  },
  {
    "Seq String": "QVQLVESGGGLVQAGGSLRLSCAASGFIFGYYAMGWYRQAPGKERELVAAINYNDDSTYYADSVKGRFTISRDNAKNTVYLQMNSLKPEDTAVYYCAARRFWPGNSYYYRYYYWGQGTQVTVSS",
    "polyreactivity (PSR sort gate)": "low polyreactivity"
  }
]

###

- Measurement Description: yeast display, Sf9 membrane polyspecificity reagent, FACS + sequencing; frameworks hold sequencing errors

[
  {
    "Seq String": "QVQLVESGGGLVQAGGSLRLSCAASGITFASYAMGWYRQAPGKERELVAVITRSTGRTYYADSVKGRFTISRDNAKNTVYLQMNSLKPEDTAVYYCAAGYITWYDYWGQGTQVTVSS",
    "polyreactivity (PSR sort gate)": "high polyreactivity"
  },
  {
    "Seq String": "QVQLVESGGGLVQAGGSLRLSCAASGRTFWYNAMGWYRQAPGKERELVAVISSGAITYYADSVKGRFTISRDNAKNTVYLQMNSLKPEDTAVYYCAARSYLSLIDYWGQGTQVTVSS",
    "polyreactivity (PSR sort gate)": "high polyreactivity"
  },
  {
    "Seq String": "QVQLVESGGGLVQAGGSLRLSCAASGRTFDYNAMGWYRQAPGKEWELVADIRLISGNTYYADSVKGRFTISRDNAKNTVYLQMNSLKPEETAVYYCAATSDGVPSLYGGMDYRGQGTQVTVSS",
    "polyreactivity (PSR sort gate)": "low polyreactivity"
  },
  {
    "Seq String": "QVQLVESGGGLVQAGGSLRLSCAASGGTFYRNAMGWSRQAPGKERELVAAINYRGDRTYYADSVKGRFTISRDNAKNTVYLQMNSLKPEDTAVYYCAADSYPAYLGFVGFDYWGQGTQVTVSS",
    "polyreactivity (PSR sort gate)": "low polyreactivity"
  },
  {
    "Seq String": "QVHLVESGGGLVQAGGILRLSCSASGRIFSVNAMGWYRQSPGKERELVAAITTRGGTTYYADSVKGRFTISRDNAKNTVYLLMNSLKPEDTAVYYCAAESSWYVYWEWAHDYWGQGTQVTVSS",
    "polyreactivity (PSR sort gate)": "low polyreactivity"
  },
  {
    "Seq String": "QVQLVESGGGLVQAGGSLRLSCAASGSTFYHNAMGWYRQAPGKERELVAAMTWSGSRTYYADSVKGRFTISRDNAKNTVYLQMNSLKPEDTAVYYCAARDYWGQGTQVTVSS",
    "polyreactivity (PSR sort gate)": "high polyreactivity"
  },
  {
    "Seq String": "QVKLVESGGGLVQAGGSLRLTCAASGFTFTPNAMGWYRQAPGKEMELVAAITRSSGRTYYADSVKGRFTISRDNAKNTVYLQMNSLKPEDTAVYYCAARYASTPYARFGFWGQGTQVTVSS",
    "polyreactivity (PSR sort gate)": "high polyreactivity"
  },
  {
    "Seq String": "QVQLQESGGGLVQAGGSLRLSCAASGYISYCVGMGWYRQAPGKEREFVASIAVGSNTYYADSVKGRFTISRYNAKISVYLQRNSLKPEDTAVYYCSVEDSWTYRFDYWGQGTQVTVSS",
    "polyreactivity (PSR sort gate)": "high polyreactivity"
  },
  {
    "Seq String": "QVQLVESGGGLVQAGGSLRLSCAASGLILYYYDMGWYRQAPGKERELVAAISWNGDDTYYADSVKGRFTISRDNAKNTVYLQMNSLKPEDTAVYYCAAEGPPQTDDYWGQATQVTVSS",
    "polyreactivity (PSR sort gate)": "high polyreactivity"
  },
  {
    "Seq String": "QVQLVESGGGLVQAGGSLRLSCAASGRTFLGYAMGWYRQAPGKERELVAAITWRGGITYYADSVKGRFTISRDNAKNTVYLQMNSLKPEDTAVYYCARDYGQYGWYRYGRTFDNWGQGTQVTVSS",
    "polyreactivity (PSR sort gate)": "high polyreactivity"
  },
  {
    "Seq String": "QVQLVESGGGLVQAGGSLRLSCAASGLIFSSNAMGWYRQAPGKERELVAAISSRGGRTYYADSVKGRFTISRDNAKNTVYLQMNSLKPEDTAVYYCAKYFTEVSRHTYDYWGQVTQVTVSS",
    "polyreactivity (PSR sort gate)": "high polyreactivity"
  },
  {
    "Seq String": "QVQLVESGGGLVQAGGSLRLSCAASGSTFWYYDMGWYRQAPGKERELVAAITSGGRTNYADSVKGRFTISRDNAKNTVYLQMNSLKPEDTAVYYCARGPLSHTALYWRGRYNYWGQGTQVTVSS",
    "polyreactivity (PSR sort gate)": "high polyreactivity"
  },
  {
    "Seq String": "QVQLVESGGGLVQAGGSLRLSCAASGSIFKYYAKGWYRQAPGKERELVAAITIGGNTNYADSVKGRFTISRDNAKNTVYLQMNSLKPEDTAVYYCATGGYYSAIVYGGYDYWGHGTQVTVSS",
    "polyreactivity (PSR sort gate)": "low polyreactivity"
  }
]
